Provenance of the data: patent US10336702B2

- test-target: Akt2 (Homo sapiens, UniProt P31751)
- Construct: unspecified tag, removed (detagged) (cleaved yes); purchased SignalChem and Proteros (Akt2); Merck Millipore (PDK1) 14-452 (PDK1); none given for Akt2
- method-description: Akt activation assay (PDK1-mediated activation, LANCE Ultra crosstide TR-FRET), Akt2
- Type: biochemical
- experimental-conditions: read-out: Biological Assay 1 IC50 (nM) Akt2

- smiles-string: "CN(C)C(=O)[C@H]1CC[C@H](CC(=O)Nc2cnc(-c3ccc(C(C)(C)N)cc3)c(-c3ccccc3)c2)CC1"
  test-target: "Akt2 (Homo sapiens, UniProt P31751)"
  reading-unit: "nM"
  reading-qualifier: "="
  IC50: 3300
- smiles-string: "N[C@]1(c2ccc(-c3cnc(NC(=O)C[C@H]4CC[C@H](N5CCOC5=O)CC4)cc3-c3ccccc3)cc2)C[C@@H](F)C1"
  test-target: "Akt2 (Homo sapiens, UniProt P31751)"
  reading-unit: "nM"
  reading-qualifier: "="
  IC50: 480
- smiles-string: "NC1(c2ccc(-c3ncc(NC(=O)C[C@H]4CC[C@H](N5CCOCC5)CC4)cc3-c3ccsc3)cc2)CCC1"
  test-target: "Akt2 (Homo sapiens, UniProt P31751)"
  reading-unit: "nM"
  reading-qualifier: "="
  IC50: 1900
- smiles-string: "CC(=O)N(C)[C@H]1CC[C@H](CC(=O)Nc2cnc(-c3ccc(C(C)(C)N)cc3)c(-c3ccsc3)c2)CC1"
  test-target: "Akt2 (Homo sapiens, UniProt P31751)"
  reading-unit: "nM"
  reading-qualifier: ">"
  IC50: 24000

###

- test-target: p-Akt2 in WM115 cells (Homo sapiens)
- Construct: SureFire assays to detect cellular p-Akt1, p-Akt2 and p-Akt3 levels in WM115 cells (Akt2/3) and LNCaP cells (Akt1); endogenous in cells; host or cells: WM115 (ECACC 91061232), insulin-stimulated
- Sequence (P31751 whole entry): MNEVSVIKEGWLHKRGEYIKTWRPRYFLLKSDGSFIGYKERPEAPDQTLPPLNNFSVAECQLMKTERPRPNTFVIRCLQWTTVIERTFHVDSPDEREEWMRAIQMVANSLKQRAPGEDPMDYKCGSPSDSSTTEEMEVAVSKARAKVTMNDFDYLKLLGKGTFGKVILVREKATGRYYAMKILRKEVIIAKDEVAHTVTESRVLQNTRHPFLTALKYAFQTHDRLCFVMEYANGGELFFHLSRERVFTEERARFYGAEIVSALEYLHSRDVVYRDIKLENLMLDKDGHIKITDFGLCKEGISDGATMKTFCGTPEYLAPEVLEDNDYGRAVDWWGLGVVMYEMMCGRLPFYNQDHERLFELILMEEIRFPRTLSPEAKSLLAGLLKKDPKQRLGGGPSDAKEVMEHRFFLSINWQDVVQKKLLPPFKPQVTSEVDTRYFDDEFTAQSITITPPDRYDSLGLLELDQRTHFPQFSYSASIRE
- method-description: Phospho-Akt cellular SureFire assay, p-Akt2 in WM115 cells
- Format: cell-based
- experimental-conditions: insulin stimulated, read-out: Biological Assay 2 IC50 (nM) Akt2 WM115
IC50 vs 3000 nM: less than gives label 1; not less than gives label 0.

- molecule: "CCC(=O)N(C)[C@H]1CC[C@H](CC(=O)Nc2cc(-c3ccccc3)c(-c3ccc(C4(N)CC4)cc3)nn2)CC1 [Example A91]"
  test-target: "p-Akt2 in WM115 cells (Homo sapiens)"
  category: "label 1"
- molecule: "CC(=O)NC1CCC(CC(=O)Nc2cnc(-c3ccc([C@]4(N)C[C@](C)(O)C4)cc3)c(-c3ccccc3)c2)CC1 (stereo partly shown) [Example 2]"
  test-target: "p-Akt2 in WM115 cells (Homo sapiens)"
  category: "label 0"
- molecule: "CC(=O)N(C)[C@H]1CC[C@H](CC(=O)Nc2cc(-c3ccccc3)c(-c3ccc([C@]4(N)C[C@H](F)C4)cc3)cn2)CC1 [Example A59]"
  test-target: "p-Akt2 in WM115 cells (Homo sapiens)"
  category: "label 0"
- molecule: "CC(=O)N[C@H]1CC[C@H](CC(=O)Nc2cnc(-c3ccc([C@]4(N)C[C@H](F)C4)cc3)c(-c3ccccc3)c2)CC1 [Example 15]"
  test-target: "p-Akt2 in WM115 cells (Homo sapiens)"
  category: "label 1"
- molecule: "CC(=O)N(C)[C@H]1CC[C@H](CC(=O)Nc2cc(-c3ccsc3)c(-c3ccc(C4(N)CC4)c(F)c3)nn2)CC1 [Example 92]"
  test-target: "p-Akt2 in WM115 cells (Homo sapiens)"
  category: "label 0"
- molecule: "CN(C(=O)C1CCC1)[C@H]1CC[C@H](CC(=O)Nc2cc(-c3ccccc3)c(-c3ccc(C(C)(C)N)cc3)nn2)CC1 [Example A87]"
  test-target: "p-Akt2 in WM115 cells (Homo sapiens)"
  category: "label 0"
- molecule: "CC(C)(N)c1ccc(-c2nnc(NC(=O)C[C@H]3CC[C@H](N4CCOC4=O)CC3)nc2-c2ccccc2)cc1 [Example 69]"
  test-target: "p-Akt2 in WM115 cells (Homo sapiens)"
  category: "label 0"
- molecule: "CC(=O)N(C(C)C)[C@H]1CC[C@H](CC(=O)Nc2cc(-c3ccccc3)c(-c3ccc([C@]4(N)C[C@](C)(O)C4)cc3)nn2)CC1 [Example 100]"
  test-target: "p-Akt2 in WM115 cells (Homo sapiens)"
  category: "label 1"
- molecule: "CC(=O)N(C)[C@H]1CC[C@H](CC(=O)Nc2cc(-c3ccccc3)c(-c3ccc([C@]4(N)C[C@](C)(O)C4)cc3)nn2)CC1 [Example 57]"
  test-target: "p-Akt2 in WM115 cells (Homo sapiens)"
  category: "label 1"
- molecule: "COC(=O)N(C)[C@H]1CC[C@H](CC(=O)Nc2cnc(-c3ccc([C@]4(N)C[C@H](F)C4)cc3)c(-c3ccccc3)c2)CC1 [Example 77]"
  test-target: "p-Akt2 in WM115 cells (Homo sapiens)"
  category: "label 0"
- molecule: "CC(=O)N(C(C)C)[C@H]1CC[C@H](CC(=O)Nc2cnc(-c3ccc(C(C)(C)N)cc3)c(-c3ccccc3)c2)CC1 [Example A44]"
  test-target: "p-Akt2 in WM115 cells (Homo sapiens)"
  category: "label 0"
- molecule: "CC(C)(N)c1ccc(-c2cnc(NC(=O)C[C@H]3CC[C@H](N4CCOC4=O)CC3)cc2-c2ccsc2)cc1 [Example A52]"
  test-target: "p-Akt2 in WM115 cells (Homo sapiens)"
  category: "label 1"
